Data origin: PubChem BioAssay (NCI)

test: NCI Yeast Anticancer Drug Screen. Data for the mec2-1 strain (AID 157); conditions: S. cerevisiae mec2-1 strain, at 50.0 µM
The panel holds about 79,000 compounds, 15% with a hit somewhere; the sample as a whole holds those more often. The source made the active and inactive calls. No stated cut-off is given here; in the data, active means growth inhibition above about 70%; inactive means the rest.
Hi there, use one of these labels in your reply, thanks! t = active, f = inactive

molecule	class_label
O=C(Nc1ccccc1)/C(N=Nc1ccccc1)=N\Nc1ccccc1	f
Cc1ccc(NC(=O)OCC(F)(F)C(F)(F)C(F)(F)F)c(NC(=O)OCC(F)(F)C(F)(F)C(F)(F)F)c1	f
CCCCCC1=CC(=O)C=C(OC)C12C(=O)Oc1cc(O)c(C(=O)O)c(CCCCC)c12 (configuration not stated)	f

query: Entry COCC(C)(c1cn(C)c2ccccc12)c1cn(C)c2ccccc12 : call = ?
result: f

query: Entry CC(=O)OCC1OC(n2c(C)cc(C)c(C#N)c2=S)C(OC(C)=O)C(OC(C)=O)C1OC(C)=O (configuration not stated) : call = ?
result: f

query: Entry CCCOC(=O)c1ccccc1Cl : call = ?
result: f

query: Entry CCCCOC1NC(=O)Oc2ccccc21 (configuration not stated) : call = ?
result: f

query: Entry NC(=O)c1ccccc1NC(=O)CCCOc1ccccc1 : call = ?
result: f

query: Entry O=C(NC(Nc1ccc(F)cc1)(C(F)(F)F)C(F)(F)F)C(C(F)(F)F)C(F)(F)F : call = ?
result: t

query: Entry CC1=CCCCC1 : call = ?
result: f

query: Entry Cc1cc(-c2cscn2)c(O)c([N+](=O)[O-])c1 : call = ?
result: f

query: Entry Cc1cn(C2CC(N(C)C)C(CO)O2)c(=O)[nH]c1=O (configuration not stated) : call = ?
result: f

query: Entry CCCCCCCCCCCCS(=O)(=O)N/N=C(\c1ccccc1Cl)N1CCOCC1 : call = ?
result: f

query: Entry Cc1ccc(S(=O)(=O)N(CCCc2c(Cl)nc(N)nc2Cc2ccccc2)c2ccccc2)cc1 : call = ?
result: f

query: Entry Nc1ccccc1Br : call = ?
result: f

query: Entry CC(C)Oc1ccc(N2C(=O)C(C)CNC2=S)cc1 (configuration not stated) : call = ?
result: f

query: Entry C/C(O)=C(/N=Nc1ccc(-c2nc3ccc(C)c(S(=O)(=O)O)c3s2)cc1)C(=O)Nc1ccccc1 : call = ?
result: f

query: Entry CC(=O)CC(=O)N1CCCCCCC1 : call = ?
result: f

query: Entry O=C1CCC(=O)N2C(=O)CCC(=O)N12 : call = ?
result: f

query: Entry OCCSCc1ccccc1 : call = ?
result: f

query: Entry CC(C)(C)OC(=O)CC(c1ccccc1)c1ccccc1 : call = ?
result: f

query: Entry C/C(=N\O)C(=O)c1cccc([N+](=O)[O-])c1 : call = ?
result: f

query: Entry CC(=O)NC(CCCNC(=O)N(C)N=O)C(=O)NCc1ccccc1 (configuration not stated) : call = ?
result: f

query: Entry CN1CCC2(C1)C1CC3CC(C1)CC2C3 (configuration not stated) : call = ?
result: f

query: Entry CC1(C)OC2C(=O)C3COC(O3)C2O1 (configuration not stated) : call = ?
result: f

query: Entry O=C(O)C(Sc1ccccc1)c1ccccc1 (configuration not stated) : call = ?
result: f

query: Entry Brc1cc2c(cc1C1SCCS1)OCO2 : call = ?
result: f

query: Entry CC(C)(C)OC(=O)C1/C(=C/CO)CN1C(=O)OC(C)(C)C (configuration not stated) : call = ?
result: f

query: Entry N=C(N)SCc1cccc(-c2nc3ccccc3c(=O)o2)c1 : call = ?
result: f

query: Entry CCC1CCC(Cc2ccncc2)CC1 (configuration not stated) : call = ?
result: f

query: Entry COc1cc(C(NC(N)=O)c2cc3c(cc2O)OCO3)cc(OC)c1O (configuration not stated) : call = ?
result: f
